test system: DMS-114 complex spheroids with HUVEC/MSC, growth % test/control; experiment: Anticancer human tumor DMS-114 cell line growth inhibition [AhR]; conditions: second compound 3.16 µM; first compound 10 µM; hits give low values;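 also: spheroids exposed to agents for 7 days before readout; 100% = DMSO vehicle control wells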
Doc: threshold 70% (exclusive). Items with viability, T/C beneath it return Satisfied; others return Not satisfied.

INPUT: # strict comparison: is reported viability, T/C < 70%? input = NS(=O)(=O)OCC1CC(n2ccc3c(NC4CCc5ccccc54)ncnc32)CC1O (stereo unspecified) + Cc1cncc(-c2nc(NCCc3c[nH]c4ccccc34)c3ncn(C(C)C)c3n2)c1
OUTPUT: Satisfied

INPUT: # strict comparison: is reported viability, T/C < 70%? input = CC(C)c1c(-c2ccccc2)nc2c(C#N)c[nH]n2c1=O + Cc1cncc(-c2nc(NCCc3c[nH]c4ccccc34)c3ncn(C(C)C)c3n2)c1
OUTPUT: Not satisfied

INPUT: # strict comparison: is reported viability, T/C < 70%? input = O=C(C=Cc1cccc(S(=O)(=O)Nc2ccccc2)c1)NO + Cc1ccccc1N=Nc1ccc(NC(=O)c2ccnn2C)c(C)c1
OUTPUT: Satisfied

INPUT: # strict comparison: is reported viability, T/C < 70%? input = O=C(c1cc(Cc2n[nH]c(=O)c3ccccc23)ccc1F)N1CCN(C(=O)C2CC2)CC1 + CC(CO)NC(=O)c1cc(-c2ccc(Cl)cc2)nn(-c2cnn(C)c2)c1=O
OUTPUT: Satisfied

INPUT: # strict comparison: is reported viability, T/C < 70%? input = NS(=O)(=O)OCC1CC(n2ccc3c(NC4CCc5ccccc54)ncnc32)CC1O (stereo unspecified) + Cc1ccccc1N=Nc1ccc(NC(=O)c2ccnn2C)c(C)c1
OUTPUT: Satisfied

---

Assign viability, T/C to each entry below.
system: DMS-114 complex spheroids with HUVEC/MSC, growth % test/control; assay: Anticancer human tumor DMS-114 cell line growth inhibition [AhR]; settings: second compound 0.316 µM; first compound 0.0316 µM; hits give low values;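 also: spheroids exposed to agents for 7 days before readout; 100% = DMSO vehicle control wells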

INPUT: Lab request: please report viability, T/C under test system DMS-114 complex spheroids with HUVEC/MSC, growth % test/control for Nc1ccn(C2OC(CO)C(O)C2(F)F)c(=O)n1 (stereo not given) + Cc1ccccc1N=Nc1ccc(NC(=O)c2ccnn2C)c(C)c1
OUTPUT: 25.6%

INPUT: Lab request: please report viability, T/C under test system DMS-114 complex spheroids with HUVEC/MSC, growth % test/control for COc1cccc2c1C(=O)c1c(O)c3c(c(O)c1C2=O)CC(O)(C(=O)CO)CC3OC1CC(N)C(O)C(C)O1 (stereo not given) + Cc1ccccc1N=Nc1ccc(NC(=O)c2ccnn2C)c(C)c1
OUTPUT: 75.5%

INPUT: Lab request: please report viability, T/C under test system DMS-114 complex spheroids with HUVEC/MSC, growth % test/control for NS(=O)(=O)OCC1CC(n2ccc3c(NC4CCc5ccccc54)ncnc32)CC1O (stereo not given) + Cc1ccccc1N=Nc1ccc(NC(=O)c2ccnn2C)c(C)c1
OUTPUT: 113%

INPUT: Lab request: please report viability, T/C under test system DMS-114 complex spheroids with HUVEC/MSC, growth % test/control for O=C(c1cc(Cc2n[nH]c(=O)c3ccccc23)ccc1F)N1CCN(C(=O)C2CC2)CC1 + Cc1ccccc1N=Nc1ccc(NC(=O)c2ccnn2C)c(C)c1
OUTPUT: 122%

INPUT: Lab request: please report viability, T/C under test system DMS-114 complex spheroids with HUVEC/MSC, growth % test/control for Nc1ncn(C2CC(O)C(CO)O2)c(=O)n1 (stereo not given) + Cc1cncc(-c2nc(NCCc3c[nH]c4ccccc34)c3ncn(C(C)C)c3n2)c1
OUTPUT: 90.6%

INPUT: Lab request: please report viability, T/C under test system DMS-114 complex spheroids with HUVEC/MSC, growth % test/control for CC(C)c1c(-c2ccccc2)nc2c(C#N)c[nH]n2c1=O + Cc1ccccc1N=Nc1ccc(NC(=O)c2ccnn2C)c(C)c1
OUTPUT: 95.5%

INPUT: Lab request: please report viability, T/C under test system DMS-114 complex spheroids with HUVEC/MSC, growth % test/control for Nc1ncn(C2CC(O)C(CO)O2)c(=O)n1 (stereo not given) + Cc1ccccc1N=Nc1ccc(NC(=O)c2ccnn2C)c(C)c1
OUTPUT: 104%

INPUT: Lab request: please report viability, T/C under test system DMS-114 complex spheroids with HUVEC/MSC, growth % test/control for COc1cc(Nc2ncc3c(n2)-c2ccc(Cl)cc2C(c2c(F)cccc2OC)=NC3)ccc1C(=O)O + Cc1cncc(-c2nc(NCCc3c[nH]c4ccccc34)c3ncn(C(C)C)c3n2)c1
OUTPUT: 28.4%

INPUT: Lab request: please report viability, T/C under test system DMS-114 complex spheroids with HUVEC/MSC, growth % test/control for CC1COCCN1c1cc(C2(S(C)(=N)=O)CC2)nc(-c2ccnc3[nH]ccc23)n1 (stereo not given) + Cc1ccccc1N=Nc1ccc(NC(=O)c2ccnn2C)c(C)c1
OUTPUT: 102%

INPUT: Lab request: please report viability, T/C under test system DMS-114 complex spheroids with HUVEC/MSC, growth % test/control for CC1(C)CCC(CN2CCN(c3ccc(C(=O)NS(=O)(=O)c4ccc(NCC5CCOCC5)c([N+](=O)[O-])c4)c(Oc4cnc5[nH]ccc5c4)c3)CC2)=C(c2ccc(Cl)cc2)C1 + Cc1ccccc1N=Nc1ccc(NC(=O)c2ccnn2C)c(C)c1
OUTPUT: 120%

---

Test system: DMS-114 complex spheroids with HUVEC/MSC, growth % test/control
Assay: Anticancer human tumor DMS-114 cell line growth inhibition [AhR];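 also: spheroids exposed to agents for 7 days before readout; 100% = DMSO vehicle control wells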
Details: second compound 0.316 µM; first compound 10 µM; hits give low values
Description: Multicellular complex tumor spheroid response to aryl hydrocarbon receptor antagonists in combination with a variety of drugs and investigational agents in selected tumor cell lines […] Compounds. […] If the clinical Cmax for an agent had not been determined, the highest concentration tested was 10 microM (Table 1). […]
ATTRIBUTE MEASURED: viability, T/C (%)
Quick reminder: number only, in %, skip the unit.

INPUT: Given the entry CC1(C)CCC(CN2CCN(c3ccc(C(=O)NS(=O)(=O)c4ccc(NCC5CCOCC5)c([N+](=O)[O-])c4)c(Oc4cnc5[nH]ccc5c4)c3)CC2)=C(c2ccc(Cl)cc2)C1 + CC(CO)NC(=O)c1cc(-c2ccc(Cl)cc2)nn(-c2cnn(C)c2)c1=O , report its measured viability, T/C.
OUTPUT: 73.4

INPUT: Given the entry CC(C)c1c(-c2ccccc2)nc2c(C#N)c[nH]n2c1=O + CC(CO)NC(=O)c1cc(-c2ccc(Cl)cc2)nn(-c2cnn(C)c2)c1=O , report its measured viability, T/C.
OUTPUT: 113

INPUT: Given the entry Nc1ccn(C2OC(CO)C(O)C2(F)F)c(=O)n1 (configuration not stated) + CC(CO)NC(=O)c1cc(-c2ccc(Cl)cc2)nn(-c2cnn(C)c2)c1=O , report its measured viability, T/C.
OUTPUT: 12.8

INPUT: Given the entry CC1COCCN1c1cc(C2(S(C)(=N)=O)CC2)nc(-c2ccnc3[nH]ccc23)n1 (configuration not stated) + Cc1cncc(-c2nc(NCCc3c[nH]c4ccccc34)c3ncn(C(C)C)c3n2)c1 , report its measured viability, T/C.
OUTPUT: 31

INPUT: Given the entry Nc1ccccc1NC(=O)c1ccc(CNC(=O)OCc2cccnc2)cc1 + CC(CO)NC(=O)c1cc(-c2ccc(Cl)cc2)nn(-c2cnn(C)c2)c1=O , report its measured viability, T/C.
OUTPUT: 13.5

INPUT: Given the entry CC1COCCN1c1cc(C2(S(C)(=N)=O)CC2)nc(-c2ccnc3[nH]ccc23)n1 (configuration not stated) + CC(CO)NC(=O)c1cc(-c2ccc(Cl)cc2)nn(-c2cnn(C)c2)c1=O , report its measured viability, T/C.
OUTPUT: 30.5

INPUT: Given the entry COc1cc(Nc2ncc3c(n2)-c2ccc(Cl)cc2C(c2c(F)cccc2OC)=NC3)ccc1C(=O)O + Cc1cncc(-c2nc(NCCc3c[nH]c4ccccc34)c3ncn(C(C)C)c3n2)c1 , report its measured viability, T/C.
OUTPUT: 64.6

INPUT: Given the entry Nc1ccn(C2OC(CO)C(O)C2(F)F)c(=O)n1 (configuration not stated) + Cc1ccccc1N=Nc1ccc(NC(=O)c2ccnn2C)c(C)c1 , report its measured viability, T/C.
OUTPUT: 24.2

INPUT: Given the entry COc1ccc([C@@H](O)c2cc(-c3ncnc4cc(N5CCOCC5)ccc34)c(F)cc2Cl)nn1 + Cc1ccccc1N=Nc1ccc(NC(=O)c2ccnn2C)c(C)c1 , report its measured viability, T/C.
OUTPUT: 99.8

INPUT: Given the entry O=C(c1cc(Cc2n[nH]c(=O)c3ccccc23)ccc1F)N1CCN(C(=O)C2CC2)CC1 + Cc1cncc(-c2nc(NCCc3c[nH]c4ccccc34)c3ncn(C(C)C)c3n2)c1 , report its measured viability, T/C.
OUTPUT: 49.1

INPUT: Given the entry O=C(C=Cc1cccc(S(=O)(=O)Nc2ccccc2)c1)NO + Cc1cncc(-c2nc(NCCc3c[nH]c4ccccc34)c3ncn(C(C)C)c3n2)c1 , report its measured viability, T/C.
OUTPUT: 9.73

INPUT: Given the entry O=C(C=Cc1cccc(S(=O)(=O)Nc2ccccc2)c1)NO + Cc1ccccc1N=Nc1ccc(NC(=O)c2ccnn2C)c(C)c1 , report its measured viability, T/C.
OUTPUT: 27.4

Hey, just so you know, these numbers are from PubChem BioAssay AID1919008.
